- Tested on: PPARa:RXRa (NR concentration 270 nM, RXRa partner concentration 90 nM)
- Assay Info: PBM binding z-score (relative to random genomic background probes); higher = stronger binding; sequences stand for … in GC…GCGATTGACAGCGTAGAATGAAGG
Decision: PBM binding z-score >= 5 yields true, all other cases yield false.

Sequence Input | Assayed Target | Classification
GCTTACGGGTCAAAGATTATAGCATGAATAGAAT | PPARa:RXRa (NR concentration 270 nM, RXRa partner concentration 90 nM) | true
TCATGTAGGTAAAGGTGAAAGTCGAACGATATGA | PPARa:RXRa (NR concentration 270 nM, RXRa partner concentration 90 nM) | false
AGAATGAGGTTACAAAAGATCAGGGAAACGCTTG | PPARa:RXRa (NR concentration 270 nM, RXRa partner concentration 90 nM) | false
TAGCCTAGATCATTCAGGGGCCAGTATAGAAAGC | PPARa:RXRa (NR concentration 270 nM, RXRa partner concentration 90 nM) | false
AGTCAAAGTTCACCAGGTAACGTAAGATTCAGCT | PPARa:RXRa (NR concentration 270 nM, RXRa partner concentration 90 nM) | true
